target.of.assay: Aldo-keto reductase family 1 member B1 (Rattus norvegicus)
In this section, each of the compounds is paired with its reported log10 of IC50.
value.kind: log10 of IC50 (log10 of the value in nM)

[
  {
    "compound.string": "O=C(O)CN1CN(Cc2cccc([N+](=O)[O-])c2)S(=O)(=O)c2cc(Cl)cnc21",
    "log10 of IC50": 1.97
  },
  {
    "compound.string": "O=C(O)CN1CN(Cc2ccc(Br)cc2F)S(=O)(=O)c2cc(Br)cnc21",
    "log10 of IC50": 1.84
  },
  {
    "compound.string": "O=C(O)CN1CN(Cc2cccc([N+](=O)[O-])c2)S(=O)(=O)c2cc(Br)cnc21",
    "log10 of IC50": 1.99
  },
  {
    "compound.string": "O=C(O)CN1CN(Cc2ccc(C(F)(F)F)cc2)S(=O)(=O)c2cc(Br)cnc21",
    "log10 of IC50": 2.98
  },
  {
    "compound.string": "O=C(O)CN1CN(Cc2cc(F)c(F)cc2F)S(=O)(=O)c2cc(Cl)cnc21",
    "log10 of IC50": 1.58
  },
  {
    "compound.string": "O=C(O)CN1CN(Cc2ccc(Br)cc2F)S(=O)(=O)c2cc(Cl)cnc21",
    "log10 of IC50": 1.64
  },
  {
    "compound.string": "O=C(O)CN1CN(Cc2cc(F)c(F)cc2F)S(=O)(=O)c2cc(Br)cnc21",
    "log10 of IC50": 1.82
  }
]
